The measurements presented in this section are drawn from PubChem BioAssay AID2305.

- Tested on: P. falciparum 3D7 growth, pLDH absorbance
- Assay Method Text: blood-stage malaria parasite growth potency – strain 3D7, dose response (AID 2305)
Quantity Kind: IC50 (µM)

- c1ccc(CN2CCC(NCc3ccccc3-c3ccc(CNC4CCCC4)cc3)CC2)cc1: 0.91
- O=C(/C=C/c1ccc(Cl)c(Cl)c1)NC1CCC(CN2CCC(c3nc4ncccc4[nH]3)CC2)CC1 (stereo unspecified): 1.23
- CC(C)(C)c1cc2cc(Nc3ccnc4cc(-c5nccs5)ccc34)ccc2[nH]1: 0.44
- CNC(=O)c1cncc(/C=C/c2ccccc2S(N)(=O)=O)c1: 0.69
- O=C(NC1CCCCN(Cc2ccccc2O)C1)c1cccc(Cl)c1 (stereo unspecified): 1.06
- COc1cc2ccccc2c(CNCCCCCCNCc2c(OC)c(OC)cc3ccccc23)c1OC: 1.11
- Cc1[nH]c2c(c(=O)c1Cl)-c1ccc(Oc3cccc(C(F)(F)F)c3)cc1C2=O: 0.04
- CCOc1cc(C)ccc1C1CCN(CCCCNC(=O)c2ccc(-c3ccc(Cl)cn3)cc2)CC1: 1.61
- CN(C)CCOc1cc(NC(=O)Nc2cccc([N+](=O)[O-])c2)ccc1I: 0.74
- CCOc1cc(Br)c(C(C)NC(=O)c2cccc(OC)c2)cc1OCC (stereo unspecified): 0.17
- Cc1cc(NN=Cc2cccc(F)c2)c2cccc(C)c2n1: 0.77
- Cc1cc2ncn(-c3nccc(NCc4ccc(F)c(C)c4)n3)c2cc1C: 0.99
- CCCCCCc1c(C)[nH]c2cc(OC)ccc2c1=O: 0.12
- CCN(CC)CCCC(C)Nc1c2ccccc2nc2c1ccc1ccccc12 (stereo unspecified): 1.09
- Cc1cc(NN=Cc2ccc(Cl)cc2)c2cccc(C)c2n1: 0.72
- COc1ccc(CN2CCCN(Cc3cccc(NC(=O)c4ccc(Cl)c(Cl)c4)c3)CC2)cc1: 0.97
- CCOc1ccc2ccccc2c1C(=O)Nc1cc(C)nn1-c1nc(C)cc(=O)[nH]1: 1.01
- O=C(NCCCCN1CCC(c2ccc3c(c2OC(=O)c2ccc(NC(=O)c4ccc(Cl)cc4)cc2)CCCC3)CC1)c1ccc(NC(=O)c2ccc(Cl)cc2)cc1: 0.2
- CS(=O)(=O)c1ccc(CCNCc2ccc(-c3ccc(CNC4Cc5ccccc5C4)cc3)nc2)cc1: 0.76
- Cc1cc(N)nc2ccc(-c3cccc(CN)c3)cc12: 0.71
- CC(C)c1ccc(CN2CCC(CNC(=O)c3cc(-c4ccc(N(C)C)cc4)cs3)C2)cc1 (stereo unspecified): 1.25
- Cc1cc(N(CCN2CCCCC2)CCN2CCCCC2)nc(Nc2ccc(Cl)cc2)n1: 0.27
- Cc1ccc(F)c(OC2CCN(c3ccc(C(=O)NC4CC4)cn3)CC2)c1: 0.82
- O=C(Nc1ccc2c(c1)OCCO2)c1cc(-c2cccnc2)nc2ccc(Cl)cc12: 0.71
- CCOC(=O)c1[nH]c(-c2cccc(F)c2)nc1N: 0.75
- Cc1cc(=O)c(-c2ccc(OCc3ccc(OC(F)(F)F)cc3)cc2)c(C)[nH]1: 0.74
- c1ccc(CSC2=NNC(c3ccccn3)S2)cc1 (stereo unspecified): 1.48
- CC(C)c1ccc(NC(=O)c2cccc(CN3CCCN(CC4CCCCC4)CC3)c2)cc1: 0.71
- O=C(Nc1ccc(N2CCC(Nc3ccccn3)CC2)cc1)c1cnc(Cl)c(Cl)c1: 1.19
- O=C(/C=C/c1ccc(Cl)cc1)NCCCCCN1CCCC(C(=O)Nc2ccc(F)c(Cl)c2)C1 (stereo unspecified): 1.12
- O=C(Nc1ccc2c(c1)CCC2)c1cnc(N2CCN(c3ccncc3)CC2)c(Cl)c1: 1.11
- CCNc1cc(C(=O)N[C@@H](Cc2ccccc2)[C@H](O)CNCCC(C)(C)C)c(F)c(N2CCCCS2(=O)=O)c1: 0.8
- Cn1nccc1C(=O)NCCNCc1ccc(-c2cccc(-c3nc4ccc(F)cc4[nH]3)c2)cc1: 0.22
- CCCCN1CCN(CC(O)CNC(=O)Nc2ccc(Cl)cc2)CC1 (stereo unspecified): 0.07
- COc1ccc2c(c1)OC(C)(C)CC2=NOS(=O)(=O)c1ccc(C)cc1: 0.21
- COc1ccccc1C1CCN(C2CCC(NC(=O)/C=C/c3cccc(Cl)c3F)CC2)CC1 (stereo unspecified): 1.29
- CCOC(=O)NC1=NC(C)(C)N(OCc2ccc(Cl)c(Cl)c2)C(N)=N1: 0.04
- CC(CN(C)C)C(=O)Nc1ccc(-c2csc(-c3nc4ccccc4[nH]3)c2)cc1 (stereo unspecified): 1.32
- Cc1[nH]nc2ccc(-c3ccc4nccc(N5CCC(N)CC5)c4c3)cc12: 0.59
- CCCCCCn1c(Sc2ccc(C#N)c([N+](=O)[O-])c2)nnc1-c1ccc(Cl)cc1: 0.83
- CCCCc1cc(NCc2ccncc2)nc(Nc2ccc(OC)cc2)n1: 1.06

###

- System: P. falciparum 3D7 growth, pLDH absorbance
- Assay Method Text: blood-stage malaria parasite growth potency – strain 3D7, dose response (AID 2305)
pIC50: −log10 of the molar value.
// pIC50 lookup, one value per entry
Quantity Kind: pIC50

- COc1ccc(C2CCN(CCCCNC(=O)c3ccc(NC(=O)c4ccc(Cl)cc4)cc3)CC2)c(OC)c1: 6.24
- COc1ccc2nccc([C@@H](O)CN3CCC(NC/C=C/c4cccnc4)CC3)c2c1: 6.21
- Cc1cccc2[nH]c(-c3cccc(-c4cccc(CNC(C)C)c4)c3)nc12: 6.47
- O=C(Nc1cccc(-c2cccc(-c3nc4ccc(C(F)(F)F)cc4[nH]3)c2)c1)Nc1ccc(F)c(F)c1F: 6.92
- Cc1ccc(O)cc1Nc1ccnc2cc(-c3ccc(CN4CCCCC4)o3)ccc12: 6.77

###

- Tested on: P. falciparum 3D7 growth, pLDH absorbance
- Assay Method Text: blood-stage malaria parasite growth potency – strain 3D7, dose response (AID 2305)
I'd appreciate it if you marked entries T when IC50 is lower than 600 nM and F when it is not.

• Nc1c2c(nc3ccc(Oc4ccc(Cl)cc4)cc13)CCCC2 = F
• CC(CCc1ccccc1)NCC(O)c1ccc2c3c(cccc13)S(=O)(=O)N2C (stereo not given) = F
• COc1ccc(Cl)cc1NC(=O)Nc1ccnc2ccccc12 = F
• Cc1cccc(-n2c(Nc3ccc(C)c(Cl)c3)nc3ccc(S(=O)(=O)NC(C)C(C)C)cc32)c1 (stereo not given) = F
• COc1cc(C(=O)Nc2ccc3nc(N4CCN(C)CC4)cc(C)c3c2)cc(OC)c1OC = T

###

Listed below: IC50 values for each entry.
- Test system: P. falciparum 3D7 growth, pLDH absorbance
- Assay Method Text: blood-stage malaria parasite growth potency – strain 3D7, dose response (AID 2305)
Quantity Kind: IC50 (nM)

- CCCCC#Cc1cnc2nc(N)[nH]c(=O)c2n1: 650
- Cc1ccc(NC(C)C(=O)Nc2ccc(C#N)cc2)cc1S(=O)(=O)N1CCCCC1 (centres undefined): 540
- COc1ccccc1C1CCN(C2CCC(NC(=O)/C=C/c3cc(F)cc(C(F)(F)F)c3)CC2)CC1 (centres undefined): 900
- O=C(Cc1ccc(NC(=O)c2ccc(O)c(-c3ccc(Cl)c(Cl)c3)c2)cc1)NCCN1CCOCC1: 810
- Nc1ncc(-c2ccc(NC(=O)Nc3cc(C(F)(F)F)ccc3F)cc2)c(N)n1: 720
- CCCCCCCN(Cc1ccc(OC(C)(C)C(=O)OCC)cc1)C(=O)Nc1ccc(Cl)cc1OCC: 820
- Cc1cccc(-c2nn(-c3ccccc3)c3[nH]c(=O)c(CNC4CCCC4)cc23)c1: 760
- COc1ccc(-c2ccc(NC(=O)c3ccc(C#N)cc3)cc2)cc1CNC(C)C: 530
- O=C(Nc1ccc(Cl)cc1)c1ccc(S(=O)(=O)NCC2CCN(CC3CCCCC3)CC2)cc1: 860
- O=C(NCc1cccc(Cl)c1)c1ccc(CNC2CCN(Cc3ccccc3)CC2)cc1: 880
- O=C(/C=C/c1ccccc1Cl)Nc1ccc(Br)c(OCCN2CCN(CCN3CCCC3)CC2)c1: 650
- NCc1cccc(-c2cccc(CNC3CCN(Cc4ccccc4)CC3)c2)c1: 720
- COc1cc(-c2cnc(N)c(-c3nc4ccccc4[nH]3)c2)cc(OC)c1OC: 190
- O=C(NC1CC1)c1cnc(N2CCN(Cc3ccc(Cl)cc3)CC2)c(Cl)c1: 850
- c1cn(CCCNc2ncc(-c3ccsc3)c(-c3nccs3)n2)cn1: 650
- C=CCN(c1nc(NC)nc(NCc2c(OC)cccc2OC)n1)C1CCCC1: 1460
- N#Cc1ccc2c(c1)CCN(CCC1CCC(NC(=O)c3cc4ccc(Br)cc4[nH]3)CC1)C2 (centres undefined): 760
- Nc1nccc2ccc(-c3ccc4ncccc4c3)cc12: 110
- CC[C@H]1CN2CCc3c([nH]c4ccccc34)[C@@H]2C[C@@H]1CC1c2cc(OC)c(OC)cc2CCN1C (some centres undefined): 1090
- FC(F)(F)COc1ccc(CNCCCCCCNCc2ccc(OCC(F)(F)F)c3ccccc23)c2ccccc12: 400
- CC(NC(=O)c1ccc(O)c(-c2ccc(Cl)c(Cl)c2)c1)C(=O)NCCN1CCOCC1 (centres undefined): 960
- CC(CCCCCC(=O)Nc1ccc(CC(C)NCCc2cccc(Cl)c2)cc1)NCCc1cccc(Cl)c1 (centres undefined): 950
- Nc1ccc2[nH]cc(C3CCN(CC4CCN(C(=O)/C=C/c5ccc(Cl)c(Cl)c5)CC4)CC3)c2n1: 700
- CCCCCCn1c2c(c(=N)c3c1CCC3)CCC2: 180
- O=C(Nc1ccc(Cl)c(-c2nc3ccccc3[nH]2)c1)c1ccc(-c2ccc(Cl)cc2)o1: 790
- CC(C)C[C@H](NC(=O)OC(C)(C)C)C(=O)Nc1ccc(Cc2ccc(NC(=O)[C@H](CC(C)C)NC(=O)OC(C)(C)C)cc2)cc1: 760
- Cc1cc(-c2ncc[nH]2)ccc1-c1ccc(C(=O)N2CCc3cc4c(cc32)C2(CCN(C)CC2)CO4)cc1: 800
- COc1cc(C)nc2ccc(NC(=O)COCC(=O)Nc3ccc4nc(C)cc(OC)c4c3)cc12: 920
- OC(CNCc1ccccc1Oc1ccccc1)c1cc(Br)cs1 (centres undefined): 1110
- COc1ccc(-c2cnn3ccc(Nc4cc(OC)c(OC)c(OC)c4)nc23)cc1OC: 650
- CCNc1cc(C(=O)N[C@@H](Cc2ccccc2)[C@H](O)CNC2(CC(C)C)CC2)cc(N2CCCCS2(=O)=O)c1: 1020
- CN(Cc1cccc(F)c1)C1CCCN(c2cc(NC(=O)c3ccccc3)ccn2)C1 (centres undefined): 920
- COc1ccc(Nc2ncc3c(-c4cccc(NC(=O)Cc5cccc(F)c5)c4)c[nH]c3n2)cc1OC: 570
- Cc1cc(N)nc2ccc(-c3ccc(CCN)cc3)cc12: 620
- COc1ccc(-c2cccc(NC(=O)c3cccc(C#N)c3)c2)cc1CN1CCCN(C)CC1: 190
- CC(C)NCc1ccc(-c2cccc(-c3nc4ccc(F)cc4[nH]3)c2)cc1: 410
- Cn1ccnc1CCC(=O)Nc1ccc(Cl)cc1C(=O)Nc1ccc(Cl)cc1: 1560
- O=S(=O)(c1csc2ccccc12)N(CCC(O)(C(F)(F)F)C(F)(F)F)Cc1cccc(O)c1: 360
- Cc1cc(N)c2cc(NC(=O)c3cccc(C(=O)Nc4ccc5nc(C)cc(N)c5c4)c3)ccc2n1: 260
